# TESTED_ON: T1, human G-protein coupled receptor family C group 5 member D (GPRC5D) (human, UniProt Q9NZD1 1-345)
# T1 construct: Overexpressed on 3T3 cells in the FACS assays; also called human GPRC5D; 3T3-GPRC5D
# PROTOCOL_NOTES: FACS, scFv phage clones on 3T3 cells overexpressing GPRC5D
MEASUREMENT_NAME: binding result

Some solved cases for reference:
INSERT INTO results (binder, measurement_name, measurement) VALUES
  ('ET150-159 scFv (scFv, also called ET150-9 scFv) scFv: QSVLTQPPSASGTPGQRVTISCSGSSSNIGSNYVYWYQQLPGTAPKLLIYRNNQRPSGVPDRFSGSKSGTSASLAISGLRSEDEADYYCAAWDDSLSGWVFGGGTKLTVLGSRGGGGSGGGGSGGGGSLEMAQVQLVQSGAEVKKPGSSVKVSCKASGGTFSSYAISWVRQAPGQGLEWMGWMNPNSGNTGYAQKFQGRVTMTRNTSISTAYMELSSLRSEDTAVYYCARYQSYKGSQSDSWGQGTLVTVSS', 'binding result', 'binds'),
  ('ET150-163 scFv (scFv, also called ET150-13 scFv) scFv: QSVVTQPPSVSGAPGQRVTISCTGSSSNIGAGYDVHWYQQLPGTAPKLLIYGNSNRPSGVPDRFSGSKSGTSASLAITGLQAEDEADYYCQSYDSSLSGSYVFGTGTKLTVLGSRGGGGSGGGGSGGGGSLEMAEVQLVETGGNLVQPGASLRLSCAASGFSFSGTAMHWVRQAPGKGLEWVSTISSTGRSTYYRDSVKGRFTISRDNSKNTLYLQMNSLRGEDTAVYYCARVSFDYWGQGTLVTVSS', 'binding result', 'binds'),
  ('ET150-031 scFv (scFv, also called ET150-181 scFv) scFv: AELQSVVTQPPSVSAAPGQRVTISCSGGSSNIGNNYVSWFQQLPRTAPKLLIYDNNKRPSGIPDRFSGSKSGTSAALDITVLQTGDEADYYCGTWDSSLRNWVFGGGTKLTVLGSRGGGGSGGGGSGGGGSLEMAQMQLVQSGAEVKKPGASVKVSCKASGYTFTSYYMHWVRQAPGQGLEWMGIINPSGGSTSYAQKFQGRVTMTRDTSTSTVYMELSSLRSEDTAVYYCARGQKYHSQYSRGGTGGGMTQDMWGQGTLVTVSS', 'binding result', 'binds'),
  ('ET150-169 scFv (scFv, also called ET150-19 scFv) scFv: QSVVTQPPSVSAAPGQKVTISCSGSSSNIGNNYVSWYQQLPGTAPKLLIYDNNKRPSGIPDRFSGSKSGTSATLGITGLQTGDEADYYCGTWDSSLSGVVFGGGTKLTVLGSRGGGGSGGGGSGGGGSLEMAQVQLVQSGGEVKKPGASVKVSCKASGFTFNTYGISWVRQAPGQGLEWMGWISANNGHTKSAQRFQDRVAMATDTSTSTAYMELRSLKFDDTAVYYCARGGYHHQMQRYYKATSVYSDYWGQGTLVTVSS', 'binding result', 'binds'),
  ('ET150-033 scFv (scFv, also called ET150-183 scFv) scFv: AELQAVLTQPPSASGTPGQRVTISCSGSSSNIGSNYVYWYQQLPGTAPKLLIYRNNQRPSGVPDRFSGSKSGTSASLAISGLRSEDEADYYCAAWDDSLSGRVFGTGTKVTVLGSRGGGGSGGGGSGGGGSLEMAQLQLVQSGAEVKKPGSSVKVSCKASGYTFNTYYLHWVRQAPGQGLEWMGRINPNNGGTNYAQKFQGRVTMTRDTSINTAYMELSRLRSDDTAVYYCARSYDYWGQGTLVTVSS', 'binding result', 'binds');

Looking up ET150-157 scFv (scFv, also called ET150-7 scFv) scFv: SYELTQPPSASGTPGQRVTISCSGSSSNIGSNYVSWYQQLPGTAPKLLIYRNNQRPSGVPDRFSGSKSGTSASLAISGLRSEDEADYYCAAWDDSLSGVVFGGGTKLTVLGSRGGGGSGGGGSGGGGSLEMAEVQLVQSGAEVKKPGSSVKVSCKASGGTFSSYAISWVRQAPGQGLEWMGGIIPIFGTAKYAQKFQGRVTITADESTSTAYMELSSLRSEDTAVYYCARSHVAWSLLDYWGQGTLVTVSS , I found its binding result recorded as binds

Looking up ET150-164 scFv (scFv, also called ET150-14 scFv) scFv: QSALTQPPSASGSPGQSVTISCTGTSSDVGGYNYVSWYQQHPGKAPKLMIYEVSKRPSGVPDRFSGSKSGNTASLTVSGLQAEDEADYYCSSYAGSNTLVFGGGTKLTVLGSRGGGGSGGGGSGGGGSLEMAQMQLVQSGAEVKKPGASVKVSCKASGYTFTSYYMHWVRQAPGQGLEWMGIINPSGGSTSYAQKFQGRVTMTRDTSTSTVYMELSSLRSEDTAVYYCARAGMGMDTWGQGTLVTVSS , I found its binding result recorded as binds

Looking up ET150-032 scFv (scFv, also called ET150-182 scFv) scFv: AELQSVLTQPPSASGSPGQSLTISCTGTSSDVGGYNHVSWYQQYPGKAPKLMIYEVTKRPSGVPDRFSGSKSGNTASLTVSGLQAEDEADYYCSSYAGSAHWVFGGGTKLTVLGSRGGGGSGGGGSGGGGSLEMAEVQLVQSGAEVKKPGASVKVSCKASGYTFSRYYIHWVRQAPGQGLEWMGWMNPNSGNTGYAQKFQGRVTMTRNTSISTAYMELSSLRSEDTAVYYCARGRYHVIDYWGQGTLVTVSS , I found its binding result recorded as binds

Looking up ET150-173 scFv (scFv, also called ET150-23 scFv) scFv: QSALTQPASVSGSPGQSITISCTGTSSDVGGYNYVSWYQQSPGKAPRLMIYGVSKRPSGVPDRFSGSKSGNTASLTVSGLQAEDEADYYCSSYAGVNNLMFGGGTKLTVLGSRGGGGSGGGGSGGGGSLEMAQVQLVQSGAEVKKPGASVKVSCKASGYTFTSYYMHWVRQAPGQGLEWMGIINPSGGSTSYAQKFQGRVTMTRDTSTSTVYMELSSLRSEDTAVYYCARDVISGFDSWGQGTLVTVSS , I found its binding result recorded as binds
